target: T1, extracellular domain (ECD) of human IL-7Rα fused to biotinylated Fc knob-into-hole (P1AI1009) (human, UniProt P0DOX5 223-448 = IgG part, biotinylated at C-terminal AviTag); assay: ELISA, soluble VHH supernatants on neutravidin plates with biotinylated IL-7Rα-Fc versus biotinylated Fc, anti-His-HRP
T1 construct: also called human IL-7Rα-Fc; human IL-7Rα antigen
quantity-measured: binding result

>>> val("IL-7Rα_1 VHH (VHH, soluble VHH, detected with anti-His antibody) VHH: QVQLVESGGGLVQPGGSLRLSCAASGFTFSQRIMSWYRQAPGKERELVASISPFGDGTRYADSVKGRFTISRDNARNQLYLQMNTLKPEDTAVYYCNKRNLEISDDWGQGTQVTVSS")
"binds"
>>> val("IL-7Rα_15 VHH (VHH, soluble VHH, detected with anti-His antibody) VHH: QVQLVESGGGLVQPGGSLRLSCAASGFTISSWSMKWVRQAPGKGPEWVSYISPGGGSLDYHHSVKGRFTISRDNARNTVYLQMSNLQSEDTALYWCATGTGETRGQGTQVTVSS")
"binds"
